# Lookup of reported pKd keyed by entry
- measurement target: T1, human Proprotein Convertase Subtilisin-like/Kexin type 9 (human, UniProt Q8NBP7 31-692, limits assumed)
- T1 construct: Biotinylated in the ELISAs; unlabelled analyte in BLI and SPR; also called human PCSK9; PCSK9
- T1 sequence (Q8NBP7 31-692 limits assumed): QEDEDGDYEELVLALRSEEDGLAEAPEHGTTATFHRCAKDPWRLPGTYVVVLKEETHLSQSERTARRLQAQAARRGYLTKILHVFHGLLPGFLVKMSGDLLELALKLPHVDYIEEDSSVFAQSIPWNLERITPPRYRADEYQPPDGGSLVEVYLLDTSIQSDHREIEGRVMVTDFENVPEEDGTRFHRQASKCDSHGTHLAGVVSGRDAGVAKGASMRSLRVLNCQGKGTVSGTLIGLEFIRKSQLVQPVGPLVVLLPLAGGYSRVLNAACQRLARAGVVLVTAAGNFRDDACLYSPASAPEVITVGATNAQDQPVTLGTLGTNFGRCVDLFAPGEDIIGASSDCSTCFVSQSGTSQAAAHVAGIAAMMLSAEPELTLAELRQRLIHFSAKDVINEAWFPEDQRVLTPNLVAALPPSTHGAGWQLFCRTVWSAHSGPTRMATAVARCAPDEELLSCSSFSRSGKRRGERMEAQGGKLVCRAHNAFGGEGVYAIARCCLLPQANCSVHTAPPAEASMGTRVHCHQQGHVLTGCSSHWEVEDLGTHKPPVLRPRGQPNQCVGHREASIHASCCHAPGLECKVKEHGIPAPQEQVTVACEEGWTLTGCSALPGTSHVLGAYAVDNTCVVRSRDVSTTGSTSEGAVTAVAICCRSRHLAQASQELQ
- protocol: BLI (Octet QK), biotinylated antibody on streptavidin sensors, human PCSK9 in solution, 1:1 fit
Kindly note that pKd refers to -log10 of the concentration in mol/L and answer with the value alone.

{"binder": "Ab20 (antibody, human IgG1, kappa, N297A, V domains shown, also called antibody Ab20) VH: EVQLVESGGGLVQPGGSLRLSCAASGIDLSSYAMGWVRQAPGKGLEYIGIIVSYGPTYYASWAKGRFTISRDNSKSTVYLQMNSLRAEDTATYFCARDLDAQSSGYYGAFNIWGQGTLVTVSS VL: DIQMTQSPSTLSASVGDRVTITCQASQSISTALAWYQQKPGKAPKLLIYAASPLASGVPSRFSGSGSGTEFTLTISSLQPDDFATYYCQSYYGSSNIAFGGGTKVEIKR", "test result": 9.22}

Any idea what its pKd is? The binder is Ab19 (antibody, human IgG1, kappa, N297A, V domains shown, also called antibody Ab19) VH: EVQLVESGGGLVQPGGSLRLSCAASGIDLSSYAMGWVRQAPGKGLEYIGIIVSYGPTYYASWAKGRFTISRDNSKNTVYLQMNSLRAEDTATYFCARDLDAQSSGYYGAFNIWGQGTLVTVSS VL: DIQMTQSPSTLSASVGDRVTITCQASQSISTALAWYQQKPGKAPKLLIYAASPLASGVPSRFSGSGSGTEFTLTISSLQPDDFATYYCQSYYGSSNIAFGGGTKVEIKR
8.89

Each recorded value in this set is attributed to patent US20130302399A1.
